FYI, the data here is from patent US20160137708A1.

Reported EC50, luciferase reporter assay in IL-1Rrp2 transfected Jurkat cells by item:
Target: T1, human IL-1Rrp2 (IL-1R-related protein 2) (human, UniProt Q9HB29 20-575)
T1 sequence (looked up): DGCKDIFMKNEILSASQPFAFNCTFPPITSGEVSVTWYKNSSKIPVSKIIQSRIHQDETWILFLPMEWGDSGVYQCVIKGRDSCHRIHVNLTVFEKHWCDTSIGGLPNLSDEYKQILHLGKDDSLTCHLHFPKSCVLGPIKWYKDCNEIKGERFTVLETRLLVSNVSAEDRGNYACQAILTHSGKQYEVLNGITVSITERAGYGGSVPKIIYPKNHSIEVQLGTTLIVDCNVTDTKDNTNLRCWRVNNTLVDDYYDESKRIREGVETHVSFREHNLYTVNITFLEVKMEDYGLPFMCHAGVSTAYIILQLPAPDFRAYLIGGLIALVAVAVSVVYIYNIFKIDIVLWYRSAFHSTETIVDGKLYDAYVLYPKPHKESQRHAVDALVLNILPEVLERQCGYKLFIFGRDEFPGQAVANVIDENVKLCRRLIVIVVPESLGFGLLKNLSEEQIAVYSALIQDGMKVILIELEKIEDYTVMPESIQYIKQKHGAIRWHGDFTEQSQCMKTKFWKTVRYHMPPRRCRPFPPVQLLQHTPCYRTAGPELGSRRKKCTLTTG
Assay: cell-based or functional assay
attribute measured: EC50, luciferase reporter assay in IL-1Rrp2 transfected Jurkat cells

{"columns": ["binder", "reported measurement"],
 "data": [
  ["HuIL-1F6WT/FpH (ligand) MEKALKIDTPQQGSIQDINHRVWVLQDQTLIAVPRKDRMSPVTIALISCRHVETLEKDRGNPIYLGLNGLNLCLMCAKVGDQPTLQLKEKDIMDLYNQPEPVKSFLFYHSQSGRNSTFESVAFPGWFIAVSSEGGCPLILTQELGKANTTDFGLTMLFDYKDDDDKHHHHHH", "> 0.136 µg/mL"],
  ["HuIL-1F6 WT (untagged full length wild type human IL-1F6) (ligand) MEKALKIDTPQQGSIQDINHRVWVLQDQTLIAVPRKDRMSPVTIALISCRHVETLEKDRGNPIYLGLNGLNLCLMCAKVGDQPTLQLKEKDIMDLYNQPEPVKSFLFYHSQSGRNSTFESVAFPGWFIAVSSEGGCPLILTQELGKANTTDFGLTMLF", "> 0.212 µg/mL"],
  ["HuIL-1F9WT (untagged full length wild type human IL-1F9) (ligand) MRGTPGDADGGGRAVYQSMCKPITGTINDLNQQVWTLQGQNLVAVPRSDSVTPVTVAVITCKYPEALEQGRGDPIYLGIQNPEMCLYCEKVGEQPTLQLKEQKIMDLYGQPEPVKPFLFYRAKTGRTSTLESVAFPDWFIASSKRDQPIILTSELGKSYNTAFELNIND", "> 0.544 µg/mL"]
]}
